The entries below come with measured Adjusted Retention Time values attached.
# assay-remarks: Lipopeptide hydrophobicity by RP-HPLC (adjusted retention time)
# Assay type: physicochemical
# experimental-parameters: RP-HPLC, 20–65% acetonitrile over 30 min, indicator of hydrophobicity
Where a SMILES comes first, the peptide text is derived from it. Bridges are numbered along the chain shown (N, C = ends). Roman numbers before positions name the chains, in order. The star is where a group is joined. Myristoyl = CCCCCCCCCCCCCC(=O)*; Octanoyl = CCCCCCCC(=O)*
The figure you give is taken to be in min; do not add the unit.

>  <compound>
CCCCCCCC(=O)N[C@@H](CCCNC(=N)N)C(=O)N[C@@H](CCCNC(=N)N)C(N)=O [Compound A1, C8-RR-NH2] (Octanoyl-Arg-Arg-NH2)

>  <measured-endpoint>
Adjusted Retention Time

>  <measured-value>
2.93

$$$$

Q: Please give measured Adjusted Retention Time of the following entry: CCCCCCCCCCCCCC(=O)N[C@@H](CCCNC(=N)N)C(=O)N[C@@H](CCCNC(=N)N)C(=O)N[C@@H](CSSC[C@H](NC(=O)[C@H](CCCNC(=N)N)NC(=O)[C@H](CCCNC(=N)N)NC(=O)CCCCCCCCCCCCC)C(N)=O)C(N)=O [Compound C4] (I: Myristoyl-Arg-Arg-Cys-NH2 / II: Myristoyl-Arg-Arg-Cys-NH2; disulfide I:3-II:3)
Result: 25.30

Just for reference, paper PMC8036666 is where these values come from.
